Attribution: patent US8927500B2

- experimental_system: MDM2 (Homo sapiens, UniProt Q00987)
- Sequence (Q00987 1-125): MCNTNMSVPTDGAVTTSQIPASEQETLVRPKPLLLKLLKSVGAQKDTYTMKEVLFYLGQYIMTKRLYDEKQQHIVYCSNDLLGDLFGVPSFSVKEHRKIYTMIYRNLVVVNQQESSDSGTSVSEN
- assay_text: Competitive fluorescence polarization assay for MDM2
- Assay type: binding
- condition_info: IC50 (MDM2), competitive FP assay, MDM2
Where a SMILES comes first, the peptide text is derived from it. Bridges are numbered along the chain shown (N, C = ends). [ ]: non-standard residue; d: D form. R8 = C=CCCCCCC[C@@](C)(N)C(=O)O; S5 = C=CCCC[C@](C)(N)C(=O)O
Each record here notes measured IC50.
attribute_measured: IC50

compound	experimental_system	readout_value
CC(=O)N[C@@H](CC(C)C)C(=O)N[C@H](C(=O)N[C@@H](Cc1ccccc1)C(=O)N[C@]1(C)CCCCCCC=CCCC[C@@](C)(C(=O)N[C@@H](C)C(=O)N[C@@H](C)C(=O)N[C@@H](C)C(=O)N[C@@H](C)C(=O)N[C@@H](C)C(=O)N[C@@H](C)C(=O)N[C@H](C)C(N)=O)NC(=O)[C@H](CC(C)C)NC(=O)[C@H](CCC(N)=O)NC(=O)[C@H](C)NC(=O)[C@H](Cc2c[nH]c3ccccc23)NC(=O)[C@H](Cc2ccc(O)cc2)NC(=O)[C@H](C)NC1=O)[C@@H](C)O (single isomer, unassigned) [compound 316]	MDM2 (Homo sapiens, UniProt Q00987)	< 10 nM
CC(=O)N[C@@H](CCC(=O)O)C(=O)N[C@H](C(=O)N[C@@H](Cc1ccccc1)C(=O)N[C@]1(C)CCCCCCC=CCCC[C@@](C)(C(=O)N[C@@H](C)C(=O)N[C@@H](C)C(=O)N[C@@H](C)C(=O)N[C@@H](C)C(=O)N[C@@H](C)C(=O)N[C@H](C)C(N)=O)NC(=O)[C@H](CC(C)C)NC(=O)[C@H](CCC(N)=O)NC(=O)[C@H](C)NC(=O)[C@H](Cc2c[nH]c3ccccc23)NC(=O)[C@H](Cc2ccc(O)cc2)NC(=O)[C@H](CCC(=O)O)NC1=O)[C@@H](C)O (single isomer, unassigned)	MDM2 (Homo sapiens, UniProt Q00987)	10 to 100 nM
CC(=O)N[C@@H](CC(C)C)C(=O)N[C@H](C(=O)N[C@@H](Cc1ccccc1)C(=O)N[C@]1(C)CCCCCCC=CCCC[C@@](C)(C(=O)N[C@@H](CO)C(=O)N[C@@H](C)C(=O)N[C@@H](C)C(N)=O)NC(=O)[C@H](CC(C)C)NC(=O)[C@H](C)NC(=O)[C@H](C)NC(=O)[C@H](Cc2c[nH]c3ccccc23)NC(=O)[C@H](CCC(=O)O)NC(=O)[C@H](C)NC1=O)[C@@H](C)O (single isomer, unassigned)	MDM2 (Homo sapiens, UniProt Q00987)	10 to 100 nM
CC(=O)N[C@@H](CC(C)C)C(=O)N[C@H](C(=O)N[C@@H](Cc1ccccc1)C(=O)N[C@]1(C)CCCCCCC=CCCC[C@@](C)(C(=O)N[C@@H](C)C(=O)N[C@@H](C)C(=O)N[C@@H](C)C(=O)N[C@@H](C)C(=O)N[C@@H](C)C(=O)N[C@@H](C)C(=O)N[C@H](C)C(N)=O)NC(=O)[C@H](CC(C)C)NC(=O)[C@H](CCC(N)=O)NC(=O)[C@H](C)NC(=O)[C@H](Cc2c[nH]c3ccccc23)NC(=O)[C@H](Cc2ccc(O)cc2)NC(=O)[C@H](C)NC1=O)[C@@H](C)O (single isomer, unassigned) [compound 317]	MDM2 (Homo sapiens, UniProt Q00987)	10 to 100 nM
CC(=O)N[C@@H](CC(C)C)C(=O)N[C@H](C(=O)N[C@@H](Cc1ccccc1)C(=O)N[C@]1(C)CCCCCCC=CCCC[C@@](C)(C(=O)N[C@@H](CO)C(=O)N[C@@H](C)C(=O)N[C@@H](C)C(N)=O)NC(=O)[C@H](CC(C)C)NC(=O)[C@H](C)NC(=O)[C@H](C)NC(=O)[C@H](Cc2c[nH]c3ccccc23)NC(=O)[C@H](Cc2c[nH]cn2)NC(=O)[C@H](C)NC1=O)[C@@H](C)O [compound 197] (Ac-LTF[R8]AHWAAL[S5]SAA-NH2; staple 4-11)	MDM2 (Homo sapiens, UniProt Q00987)	< 10 nM
